# Test system: 186277-243-T-J2-PDC complex spheroid viability
# Assay explanation: Anticancer human tumor 186277-243-T-J2-PDC patient-derived colon adenocarcinoma cell line growth inhibition [POLQ]
# Assay conditions: second compound 0.0316 µM; first compound 10 µM; stronger effect = lower value
Assignment: determine reported viability, T/C for the given molecules.
Report as a plain number; the unit % is understood.

Record CC(C)n1c(=O)n(C)c2cnc3cc(F)c(-c4ccc(OCCCN5CCCCC5)nc4)cc3c21 + Cc1cccc(N(C)C(=O)C2C(O)CCN2c2nc(C)cc(C(F)(F)F)c2C#N)c1 . Reported viability, T/C: 100

The recorded viability, T/C for COc1cc2cc(C(=O)CCC(=O)O)sc2cc1OC + Cc1cccc(N(C)C(=O)C2C(O)CCN2c2nc(C)cc(C(F)(F)F)c2C#N)c1 is 91.6

Record summary for O=c1[nH]cc(F)c(=O)[nH]1 + Nc1ccc(C#CCN(C(=O)Cc2ncc(C(F)(F)F)cc2C(F)(F)F)c2ccc(F)cc2)nn1 : reported viability, T/C = 64.8

Per the records, this molecule ( CC1COCCN1c1cc(-c2ccnn2C)c2ccnc(-c3ccn[nH]3)c2n1 (centres undefined) + Nc1ccc(C#CCN(C(=O)Cc2ncc(C(F)(F)F)cc2C(F)(F)F)c2ccc(F)cc2)nn1 ) has viability, T/C equal to 7.86

====

# System: 186277-243-T-J2-PDC complex spheroid viability
# Assay explanation: Anticancer human tumor 186277-243-T-J2-PDC cell line growth inhibition [POLQ];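 note: spheroids exposed to compounds for seven days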;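 for viability, T/C: 100% = DMSO vehicle control viability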
# Assay conditions: second compound 0.316 µM; first compound 3.16 µM; stronger effect = lower value
Task for the reader: assign each of the following compounds its reported viability, T/C.
Your answer is read as %, so omit the unit and give the number.

Item: O=c1[nH]cc(F)c(=O)[nH]1 + COC1C(OC(N)=O)C(O)C(Oc2ccc3c(O)c(NC(=O)c4ccc(O)c(CC=C(C)C)c4)c(=O)oc3c2C)OC1(C)C | viability, T/C: 69.3

For reference, reported viability, T/C for CCc1cc2c(N3CCc4c(cc(Cn5ccnc5)cc4-c4cn(C)nc4C(F)(F)F)C3=O)cc(C)nc2c(OC)n1 + COC1C(OC(N)=O)C(O)C(Oc2ccc3c(O)c(NC(=O)c4ccc(O)c(CC=C(C)C)c4)c(=O)oc3c2C)OC1(C)C stands at 85.3

Notebook: CC(C)n1c(=O)n(C)c2cnc3cc(F)c(-c4ccc(OCCCN5CCCCC5)nc4)cc3c21 + COC1C(OC(N)=O)C(O)C(Oc2ccc3c(O)c(NC(=O)c4ccc(O)c(CC=C(C)C)c4)c(=O)oc3c2C)OC1(C)C , viability, T/C read as 114

compound O=C(Nc1ccc(O)c(NS(=O)(=O)c2ccc(F)cc2)c1)c1ccc(-c2ccccc2)cc1 + COC1C(OC(N)=O)C(O)C(Oc2ccc3c(O)c(NC(=O)c4ccc(O)c(CC=C(C)C)c4)c(=O)oc3c2C)OC1(C)C , viability, T/C observed: 119

# viability, T/C of Nc1ccn(C2OC(CO)C(O)C2(F)F)c(=O)n1 (stereo not given) + Nc1ccc(C#CCN(C(=O)Cc2ncc(C(F)(F)F)cc2C(F)(F)F)c2ccc(F)cc2)nn1 = 14.1

====

I'd appreciate it if you could supply IC50 values for the items below.
# Test system: 186277-243-T-J2-PDC complex spheroid viability
# Assay explanation: Anticancer human tumor 186277-243-T-J2-PDC cell line growth inhibition [POLQ];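 note: spheroids exposed to compounds for seven days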
# Assay conditions: curve of first compound; second compound 1 µM
Note: unit nM is implicit; provide only the numeric part.

Value of IC50 reported for the molecule COc1cc(C2c3cc4c(cc3C(OC3OC5COC(C)OC5C(O)C3O)C3COC(=O)C23)OCO4)cc(OC)c1O (stereo not drawn) + COC1C(OC(N)=O)C(O)C(Oc2ccc3c(O)c(NC(=O)c4ccc(O)c(CC=C(C)C)c4)c(=O)oc3c2C)OC1(C)C is 662

get_value(item= CC1COCCN1c1cc(C2(S(C)(=N)=O)CC2)nc(-c2ccnc3[nH]ccc23)n1 (stereo not drawn) + Cc1cccc(N(C)C(=O)C2C(O)CCN2c2nc(C)cc(C(F)(F)F)c2C#N)c1 , readout=IC50) returns 842

Attribution: PubChem BioAssay AID1963854
